Measured pEC50 values are reported for all entries that follow.
Target: purified human topoisomerase I (Homo sapiens, UniProt P11387)
Sequence (P11387 whole entry): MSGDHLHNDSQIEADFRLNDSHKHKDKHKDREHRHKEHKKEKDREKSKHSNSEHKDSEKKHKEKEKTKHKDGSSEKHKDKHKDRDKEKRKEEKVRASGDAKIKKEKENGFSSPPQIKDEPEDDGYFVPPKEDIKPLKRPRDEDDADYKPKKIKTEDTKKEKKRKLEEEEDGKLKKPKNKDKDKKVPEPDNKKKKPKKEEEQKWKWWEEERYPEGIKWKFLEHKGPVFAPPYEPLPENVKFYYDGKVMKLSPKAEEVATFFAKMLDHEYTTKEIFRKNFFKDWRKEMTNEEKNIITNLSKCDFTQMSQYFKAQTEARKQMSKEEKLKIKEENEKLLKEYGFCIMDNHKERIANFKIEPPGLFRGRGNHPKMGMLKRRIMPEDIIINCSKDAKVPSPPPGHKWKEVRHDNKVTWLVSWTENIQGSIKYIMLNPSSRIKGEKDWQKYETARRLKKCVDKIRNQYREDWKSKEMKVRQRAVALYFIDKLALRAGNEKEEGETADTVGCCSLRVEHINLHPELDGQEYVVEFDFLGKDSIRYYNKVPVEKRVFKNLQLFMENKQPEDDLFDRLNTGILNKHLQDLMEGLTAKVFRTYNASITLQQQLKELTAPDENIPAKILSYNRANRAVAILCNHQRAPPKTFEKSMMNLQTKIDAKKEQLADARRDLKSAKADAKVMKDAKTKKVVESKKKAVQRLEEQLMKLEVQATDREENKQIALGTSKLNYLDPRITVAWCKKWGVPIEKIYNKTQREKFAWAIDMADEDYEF
Assay: Topoisomerase I mediated single strand break formation in DNA (in vitro)
Conditions: PM2 DNA, 30 minutes at 37° C; median effective concentration for single strand DNA break formation
pEC50: −log10 of the molar value.

{"columns": ["MOLECULE", "SYSTEM TESTED", "QUALIFIER SYMBOL", "pEC50"],
 "data": [
  ["O=C1NC(=O)c2c1c1c3cc(F)ccc3[nH]c1c1c2c2cc(F)ccc2n1[C@@H]1O[C@H](Cn2ccnc2)[C@@H](O)[C@H](O)[C@H]1O [Example 34]", "purified human topoisomerase I (Homo sapiens, UniProt P11387)", "=", 4.64],
  ["CN1CCN(C[C@H]2O[C@@H](n3c4ccc(F)cc4c4c5c(c6c7cc(F)ccc7[nH]c6c43)C(=O)NC5=O)[C@H](O)[C@@H](O)[C@@H]2O)CC1 [Example 35]", "purified human topoisomerase I (Homo sapiens, UniProt P11387)", "=", 6.12],
  ["CCN(CC)C[C@H]1O[C@@H](n2c3ccc(F)cc3c3c4c(c5c6cc(F)ccc6[nH]c5c32)C(=O)N(O)C4=O)[C@H](O)[C@@H](O)[C@@H]1O [Example 68]", "purified human topoisomerase I (Homo sapiens, UniProt P11387)", "=", 7.52],
  ["[N-]=[N+]=NC[C@H]1O[C@@H](n2c3ccc(F)cc3c3c4c(c5c6cc(F)ccc6[nH]c5c32)C(=O)N(O)C4=O)[C@H](O)[C@@H](O)[C@@H]1O [Example 30]", "purified human topoisomerase I (Homo sapiens, UniProt P11387)", ">", 8.00],
  ["NC[C@H]1O[C@@H](n2c3ccc(F)cc3c3c4c(c5c6cc(F)ccc6[nH]c5c32)C(=O)N(O)C4=O)[C@H](O)[C@@H](O)[C@@H]1O [Example 31]", "purified human topoisomerase I (Homo sapiens, UniProt P11387)", ">", 8.00],
  ["O=C1c2c(c3c4cc(F)ccc4n([C@@H]4O[C@H](CF)[C@@H](O)[C@H](O)[C@H]4O)c3c3[nH]c4ccc(F)cc4c23)C(=O)N1O [Example 48]", "purified human topoisomerase I (Homo sapiens, UniProt P11387)", "=", 6.40]
]}
